Every entry's value here was drawn from patent US11739098B2.

Listing of entries alongside the reported pIC50.
Biological target: human TLR9 (Homo sapiens, UniProt Q9NR96)
Sequence (Q9NR96 26-1032): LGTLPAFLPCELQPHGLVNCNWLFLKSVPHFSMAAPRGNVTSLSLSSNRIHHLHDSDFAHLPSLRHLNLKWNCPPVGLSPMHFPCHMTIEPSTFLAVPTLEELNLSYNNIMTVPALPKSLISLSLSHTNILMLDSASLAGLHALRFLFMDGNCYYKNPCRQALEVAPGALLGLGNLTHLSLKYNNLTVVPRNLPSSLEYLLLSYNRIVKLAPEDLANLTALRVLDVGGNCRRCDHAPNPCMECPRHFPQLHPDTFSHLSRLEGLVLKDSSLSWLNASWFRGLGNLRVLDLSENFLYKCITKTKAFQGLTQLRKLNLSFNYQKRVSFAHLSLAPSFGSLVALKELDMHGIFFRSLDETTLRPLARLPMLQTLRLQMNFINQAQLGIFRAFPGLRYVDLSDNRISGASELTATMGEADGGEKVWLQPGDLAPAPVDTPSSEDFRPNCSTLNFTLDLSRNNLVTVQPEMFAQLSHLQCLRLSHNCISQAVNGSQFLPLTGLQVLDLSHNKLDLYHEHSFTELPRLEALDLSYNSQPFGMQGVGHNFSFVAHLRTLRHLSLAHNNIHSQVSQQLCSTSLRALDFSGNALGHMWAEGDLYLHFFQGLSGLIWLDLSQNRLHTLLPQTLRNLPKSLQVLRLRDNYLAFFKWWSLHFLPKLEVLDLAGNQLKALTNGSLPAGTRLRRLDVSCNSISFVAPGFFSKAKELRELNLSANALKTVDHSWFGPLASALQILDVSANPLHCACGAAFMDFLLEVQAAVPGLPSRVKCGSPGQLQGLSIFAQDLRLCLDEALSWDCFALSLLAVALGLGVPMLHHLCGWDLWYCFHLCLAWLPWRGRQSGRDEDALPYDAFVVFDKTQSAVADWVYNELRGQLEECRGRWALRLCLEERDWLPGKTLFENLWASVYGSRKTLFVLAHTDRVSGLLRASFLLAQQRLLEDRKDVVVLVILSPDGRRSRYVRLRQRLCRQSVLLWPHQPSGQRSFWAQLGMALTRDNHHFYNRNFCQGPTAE
Test: TLR9 inhibition reporter assay (HEK-Blue cells, SEAP reporter, ODN2006 stimulation)
Conditions: HEK-Blue cells overexpressing human TLR9, SEAP reporter, ODN2006 5 nM
pIC50: −log10 of the molar value.

{"smiles.entry": "COc1cc(-c2[nH]c3ccc(C4CCN(CCS(C)(=O)=O)CC4)cc3c2C(C)C)cn2ccnc12", "pIC50": "4.30 to 6.00"}
{"smiles.entry": "CC(C)c1c(-c2cnc3[nH]ccc3c2)[nH]c2ccc(C3CCN(C4CCN(C)CC4)CC3)cc12", "pIC50": "6.00 to 7.00"}
{"smiles.entry": "CC(C)c1c(-c2ccn3ccnc3c2)[nH]c2ccc(C3CCNCC3)cc12", "pIC50": "6.00 to 7.00"}
{"smiles.entry": "Cc1cc(-c2[nH]c3ccc(C4CCN(C(=O)CN(C)C)CC4)cc3c2C(C)C)cc2ncnn12", "pIC50": "4.30 to 6.00"}
{"smiles.entry": "Cc1nnn2ccc(-c3[nH]c4ccc(C5CCN(CC(=O)N(C)C)CC5)cc4c3C(C)C)cc12", "pIC50": "4.30 to 6.00"}
{"smiles.entry": "CC(C)c1c(-c2ccc(C#N)c3ncccc23)[nH]c2ccc(C3CCN(CC(C)(C)O)CC3)cc12", "pIC50": "4.30 to 6.00"}
{"smiles.entry": "CNCC(=O)N1CCC(c2ccc3[nH]c(-c4cc(F)c5nccn5c4)c(CC(F)F)c3c2)CC1", "pIC50": "6.00 to 7.00"}
{"smiles.entry": "CC(C)c1c(-c2cc(Cl)cc3nccn23)[nH]c2ccc(C3CCNCC3)cc12", "pIC50": "6.00 to 7.00"}

====

Listing of entries alongside the reported IC50.
Target: UniProt:Q9NR97
Test: TLR8 inhibition reporter assay (HEK-Blue cells, SEAP reporter, R848 stimulation)
Conditions: HEK-Blue cells overexpressing human TLR8, SEAP reporter, R848 15.9 μM

{"compound": "Cc1cc(-c2[nH]c3ccc(C4CCN(C5COC5)CC4)cc3c2C(C)C)cn2ccnc12 [Example 719]", "IC50": "< 100 nM"}
{"compound": "Cc1c(-c2ncnc3[nH]cnc23)[nH]c2ccc(C3CCN(C4CCN(C(C)C)CC4)CC3)cc12 [Example 815]", "IC50": "< 100 nM"}
{"compound": "CC(C)c1c(-c2ccc3nccn3c2)[nH]c2ccc(C3CCN(CC(=O)N(C)C)CC3)cc12 [Example 444]", "IC50": "< 100 nM"}
{"compound": "CNC(=O)CN1CCC(c2ccc3[nH]c(-c4cc(C)c5oc(C)nc5c4)c(C(C)C)c3c2)CC1 [Example 339]", "IC50": "100 to 1000 nM"}
{"compound": "C[C@@H](O)CC(=O)N1CCC(c2ccc3[nH]c(-c4cc(F)c5nccn5c4)c(CC(F)F)c3c2)CC1 [Example 603]", "IC50": "> 3130 nM"}
{"compound": "CCc1c(-c2cnc3c(N)n[nH]c3c2)[nH]c2ccc(C3CCNCC3)cc12 [Example 240]", "IC50": "1000 to 50000 nM"}
{"compound": "Cc1cc(-c2[nH]c3ccc(C4CCNCC4)cc3c2C(C)C)cc2cccnc12 [Example 141]", "IC50": "< 100 nM"}
{"compound": "CC(C)c1c(-c2ccc3ncsc3c2)[nH]c2ccc(C3CCNCC3)cc12 [Example 9]", "IC50": "< 100 nM"}

====

Biological target: human TLR9 (Homo sapiens, UniProt Q9NR96)
Assay: TLR9 inhibition reporter assay (HEK-Blue cells, SEAP reporter, ODN2006 stimulation)
Settings: HEK-Blue cells overexpressing human TLR9, SEAP reporter, ODN2006 5 nM
Counter-ions that a name gives are not always drawn.
Listing of entries alongside the reported IC50.

{"molecule": "Cc1cn2cc(-c3[nH]c4ccc(C5CCN(C(C)C)CC5)cc4c3C(C)C)cc(C(F)(F)F)c2n1", "IC50": "100 to 1000 nM"}
{"molecule": "CCc1c(-c2cccc3c2cnn3C)[nH]c2ccc(C3CCN(C(=O)CN[C@H]4CC[C@@H](N)CC4)CC3)cc12", "IC50": "1000 to 50000 nM"}
{"molecule": "CC(C)c1c(-c2ccc3nccn3c2)[nH]c2ccc(C3CCN(CC(=O)NCC(F)(F)F)CC3)cc12", "IC50": "1000 to 50000 nM"}
{"molecule": "Cc1cc(-c2[nH]c3ccc(C4CCN(CC(C)(C)O)CC4)cc3c2C(C)C)cn2nnnc12 [Example 745, TFA]", "IC50": "1000 to 50000 nM"}
{"molecule": "Cc1cc2nccn2cc1-c1[nH]c2ccc(C3CCN(C4CCN(C(C)C)CC4)CC3)cc2c1C(C)C", "IC50": "< 100 nM"}
{"molecule": "CCC(C)NCC(=O)N1CCC(c2ccc3[nH]c(-c4ccnc5[nH]ncc45)c(C(C)C)c3c2)CC1 (stereo not drawn)", "IC50": "1000 to 50000 nM"}
{"molecule": "CC(C)c1c(-c2ccnc3[nH]ncc23)[nH]c2ccc(C3CCN(Cc4cccnc4)CC3)cc12", "IC50": "1000 to 50000 nM"}
{"molecule": "Cc1cc(-c2[nH]c3ccc(C4CCN(CC(=O)N(C)C)CC4)cc3c2C(C)C)cc2nccnc12", "IC50": "1000 to 50000 nM"}
{"molecule": "Cc1c(-c2[nH]c3ccc(C4CCN(C5COC5)CC4)cc3c2C(C)C)cn2nnnc2c1C", "IC50": "1000 to 50000 nM"}
{"molecule": "CC(C)c1c(-c2ccnc3[nH]ncc23)[nH]c2ccc(C3CCN(Cc4ccc(OCCCN(C)C)cc4)CC3)cc12", "IC50": "100 to 1000 nM"}
{"molecule": "CN(C)CC(=O)N1CCC(c2ccc3[nH]c(-c4ccnc5[nH]ncc45)c(CC(F)F)c3c2)CC1", "IC50": "100 to 1000 nM"}
{"molecule": "FC(F)Cc1c(-c2ccn3ccnc3c2)[nH]c2ccc(C3CCNCC3)cc12", "IC50": "< 100 nM"}
{"molecule": "Cc1cc(-c2[nH]c3ccc(C4CCN(C5COC5)CC4)cc3c2C(C)C)c(C)n2nnnc12", "IC50": "1000 to 50000 nM"}
{"molecule": "CCc1c(-c2ncnc3[nH]ccc23)[nH]c2ccc(C3CCNCC3)cc12", "IC50": "1000 to 50000 nM"}
{"molecule": "CC(C)c1c(-c2ccc3oc(=O)[nH]c3c2)[nH]c2ccc(C3CCNCC3)cc12", "IC50": "100 to 1000 nM"}

====

Target: human TLR8 (Homo sapiens)
Sequence (Q9NR97 27-1041): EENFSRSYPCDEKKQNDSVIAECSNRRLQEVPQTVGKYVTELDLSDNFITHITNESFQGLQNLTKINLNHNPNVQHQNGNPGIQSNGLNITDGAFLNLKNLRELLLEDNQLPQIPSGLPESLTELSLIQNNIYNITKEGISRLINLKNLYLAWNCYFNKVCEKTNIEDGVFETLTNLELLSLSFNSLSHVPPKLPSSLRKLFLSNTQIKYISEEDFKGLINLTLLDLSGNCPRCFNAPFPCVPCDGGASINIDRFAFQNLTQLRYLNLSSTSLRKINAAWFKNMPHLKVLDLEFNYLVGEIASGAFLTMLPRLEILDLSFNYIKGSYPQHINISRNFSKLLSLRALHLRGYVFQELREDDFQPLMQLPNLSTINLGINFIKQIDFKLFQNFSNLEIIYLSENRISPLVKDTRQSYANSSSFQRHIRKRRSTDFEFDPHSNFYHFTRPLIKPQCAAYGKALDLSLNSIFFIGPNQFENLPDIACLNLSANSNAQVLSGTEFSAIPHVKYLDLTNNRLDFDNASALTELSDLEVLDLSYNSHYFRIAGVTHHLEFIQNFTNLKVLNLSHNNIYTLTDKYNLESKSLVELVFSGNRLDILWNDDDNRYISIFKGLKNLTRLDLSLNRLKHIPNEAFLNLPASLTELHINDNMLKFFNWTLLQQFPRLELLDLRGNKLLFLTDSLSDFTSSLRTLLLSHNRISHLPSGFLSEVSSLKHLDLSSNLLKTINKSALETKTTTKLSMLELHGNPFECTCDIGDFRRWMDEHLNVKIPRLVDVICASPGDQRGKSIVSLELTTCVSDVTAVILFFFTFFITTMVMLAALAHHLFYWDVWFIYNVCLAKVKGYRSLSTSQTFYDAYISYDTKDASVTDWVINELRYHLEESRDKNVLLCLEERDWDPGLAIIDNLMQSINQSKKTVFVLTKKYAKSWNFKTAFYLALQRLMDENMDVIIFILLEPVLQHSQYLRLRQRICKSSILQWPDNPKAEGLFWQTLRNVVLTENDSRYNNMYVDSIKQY
Experiment: TLR8 inhibition reporter assay (HEK-Blue cells, SEAP reporter, R848 stimulation)
Details: HEK-Blue cells overexpressing human TLR8, SEAP reporter, R848 15.9 μM
pIC50: −log10 of the molar value.
Listing of entries alongside the reported pIC50.
attribute.measured: pIC50

{"smiles.entry": "CC(C)c1c(-c2cnc3ncnn3c2)[nH]c2ccc(C3CCN(C(=O)CN(C)C)CC3)cc12", "result": "6.00 to 7.00"}
{"smiles.entry": "CCc1c(-c2cc3cn(C)nc3cn2)[nH]c2ccc(C3CCNCC3)cc12", "result": "6.00 to 7.00"}
{"smiles.entry": "CNC(=O)CN1CCC(c2ccc3[nH]c(-c4ccc5c(cnn5C)c4C)c(C(C)C)c3c2)CC1", "result": "6.00 to 7.00"}
{"smiles.entry": "CC(C)c1c(-c2ccn3c(=O)[nH]nc3c2)[nH]c2ccc(C3CCNCC3)cc12", "result": "> 7.00"}
{"smiles.entry": "Cc1cc(-c2[nH]c3ccc(C4CCN(CC(=O)N(C)C)CC4)cc3c2C(C)C)cn2c(C#N)cnc12", "result": "> 7.00"}
{"smiles.entry": "CC(C)c1c(-c2ccc3nnnn3c2)[nH]c2ccc(C3CCN(CC(=O)N(C)C)CC3)cc12", "result": "6.00 to 7.00"}
{"smiles.entry": "COc1cc(-c2[nH]c3ccc(C4CCN(CC(=O)N(C)C)CC4)cc3c2C(C)C)c2ccccc2n1", "result": "6.00 to 7.00"}
{"smiles.entry": "Cc1c(-c2[nH]c3ccc(C4CCN(CC(C)(C)O)CC4)cc3c2C(C)C)nn2ncnc2c1C", "result": "> 7.00"}
{"smiles.entry": "Cc1cc(-c2[nH]c3ccc(C4CCN(Cc5ccn(C)n5)CC4)cc3c2C(C)C)cn2nnnc12", "result": "> 7.00"}
{"smiles.entry": "Cc1c(-c2[nH]c3ccc(C4CCNCC4)cc3c2C(C)C)cn2ccnc2c1Cl", "result": "> 7.00"}
{"smiles.entry": "CC(C)c1c(-c2ccnc3[nH]ncc23)[nH]c2ccc(C3CCN(C(=O)CN4CCC(CO)CC4)CC3)cc12", "result": "> 7.00"}
{"smiles.entry": "CNC(=O)CN1CCC(c2ccc3[nH]c(-c4cc(C)n5nccc5c4)c(C(C)C)c3c2)CC1", "result": "> 7.00"}
{"smiles.entry": "CNC(=O)CN1CCC(c2ccc3[nH]c(-c4cc(CO)c5nccn5c4)c(C(C)C)c3c2)CC1", "result": "> 7.00"}
{"smiles.entry": "CC(C)c1c(-c2cc(CO)c3nnnn3c2)[nH]c2ccc(C3CCNCC3)cc12", "result": "6.00 to 7.00"}
{"smiles.entry": "CNCCN1CCC(c2ccc3[nH]c(-c4cc5cc(OC)ccc5o4)c(C)c3c2)CC1", "result": "< 5.51"}
{"smiles.entry": "CNC(=O)CN1CCC(c2ccc3[nH]c(-c4ccc5ncc(C#N)n5c4)c(C(C)C)c3c2)CC1", "result": "6.00 to 7.00"}
